System: biotinyl-Val-oxazolone
Test: self-aminoacylation, catalytic enhancement (BVO) (fold over background); higher = more active; k-Seq, kA / k0A0; sequences stand for … in GGGAAUGGAUCCACAUCUACGAAUUC…UUCACUGCAGACUUGACGAAGCUG
Fewer inactive variants are shown than the library holds.
Each record here notes measured self-aminoacylation.
Answer using only a numeral; do not append any unit.

>>> endpoint_result("AUUCACAUUGGUCAUCGGGUG [Fam2.2 aminoacylation ribozyme variant]")
5.97
>>> endpoint_result("AUGCACCUAGGUCAUCGGGCG [Fam2.2 aminoacylation ribozyme variant]")
2.47

Now examine the next entry.
Entry AUUAACCUGCUCAUCGAGUGA [Fam2.1 aminoacylation ribozyme variant] ; self-aminoacylation = 1.86

* * *

System: biotinyl-Phe-oxazolone
Test: self-aminoacylation, catalytic enhancement (BFO) (fold over background); higher = more active; k-Seq, kA / k0A0; sequences stand for … in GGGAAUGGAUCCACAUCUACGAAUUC…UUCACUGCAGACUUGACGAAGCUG
This sample holds only a part of the variants without activity.
Quantity Name: self-aminoacylation
Answer using only a numeral; do not append any unit.

Example entries and their recorded answers appear below.
>>> endpoint_result("AAGUUUGCUAUUAGUCGCCAG [Fam3.1 aminoacylation ribozyme variant]")
0.947
>>> endpoint_result("CUACUUCAAACAAUCACUCUG [Fam1A.1 aminoacylation ribozyme variant]")
2.98
>>> endpoint_result("AUUCAUUUAGGUCAUCGGGUG [Fam2.2 aminoacylation ribozyme variant]")
45.6
>>> endpoint_result("ACUACCCUGUUCAUCGAGUGA [Fam2.1 aminoacylation ribozyme variant]")
6.68
>>> endpoint_result("AUACACCUAGGUCAACGGGUG [Fam2.2 aminoacylation ribozyme variant]")
6.06
>>> endpoint_result("CCACGCUUAAAGCAAUCGGUC [Fam1B.1 aminoacylation ribozyme variant]")
0.884

Entry AUUCACAUAGGUCAUCGAGUG [Fam2.2 aminoacylation ribozyme variant] ; self-aminoacylation = 3.08

Entry CAGUUUGCUAGUAGUCGCAAG [Fam3.1 aminoacylation ribozyme variant] ; self-aminoacylation = 1.19

Entry AAGUUUGCUAAUCUUCGCAAG [Fam3.1 aminoacylation ribozyme variant] ; self-aminoacylation = 0.816

* * *

System: biotinyl-Phe-oxazolone
Test: self-aminoacylation, catalytic enhancement (BFO) (fold over background); higher = more active; k-Seq, kA / k0A0; sequences stand for … in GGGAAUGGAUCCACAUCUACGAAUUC…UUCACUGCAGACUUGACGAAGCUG
Variants at the floor of the assay were thinned out.
Note to self: values exactly at 30 are yes (1). So self-aminoacylation at or above 30 is yes (1), below is no (0).

Task item: Does the reported self-aminoacylation for AUUACCUUGGUAAUCGAGUGA [Fam2.1 aminoacylation ribozyme variant] fall at or above the 30 mark?
Reply: yes (1)

Task item: Does the reported self-aminoacylation for AUUCACCUUGGUCAUAGGGUG [Fam2.2 aminoacylation ribozyme variant] fall at or above the 30 mark?
Reply: no (0)

Task item: Does the reported self-aminoacylation for AUUCACCUGGGUCAGCGGGUG [Fam2.2 aminoacylation ribozyme variant] fall at or above the 30 mark?
Reply: yes (1)

Task item: Does the reported self-aminoacylation for AAGUUUGGUAAUAGUCGUAAG [Fam3.1 aminoacylation ribozyme variant] fall at or above the 30 mark?
Reply: no (0)

Task item: Does the reported self-aminoacylation for CCACACUGCAAGGAAUCGGUC [Fam1B.1 aminoacylation ribozyme variant] fall at or above the 30 mark?
Reply: no (0)

Task item: Does the reported self-aminoacylation for AUCCACCUAGGUUAUCGGGUG [Fam2.2 aminoacylation ribozyme variant] fall at or above the 30 mark?
Reply: yes (1)

Task item: Does the reported self-aminoacylation for AAGUUUGUUAAUAGUCGCAAG [Fam3.1 aminoacylation ribozyme variant] fall at or above the 30 mark?
Reply: no (0)

Task item: Does the reported self-aminoacylation for UUUCACCUAGGACAUCGGGUG [Fam2.2 aminoacylation ribozyme variant] fall at or above the 30 mark?
Reply: no (0)

Task item: Does the reported self-aminoacylation for AUUACCCUGGUCAUCAACUGA [Fam2.1 aminoacylation ribozyme variant] fall at or above the 30 mark?
Reply: no (0)

Task item: Does the reported self-aminoacylation for CCACUCUUCAAGCAAUCGGUU [Fam1B.1 aminoacylation ribozyme variant] fall at or above the 30 mark?
Reply: no (0)

Task item: Does the reported self-aminoacylation for CUAAUUCAAACCAUCGGUCUG [Fam1A.1 aminoacylation ribozyme variant] fall at or above the 30 mark?
Reply: no (0)
